The values you see were collected from paper PMC8621373.

METRIC NAME: melting point

CHEMICAL STRING | melting point
COc1ccc(-c2nn3c(-c4c[nH]c5ccccc45)nnc3s2)c(OC)c1 | 178 to 180 °C

// returns reported melting point for input Ic1ccc(-c2nn3c(-c4c[nH]c5ccccc45)nnc3s2)cc1
183 to 185 °C

// returns reported melting point for input Clc1cccc(-c2nn3c(-c4c[nH]c5ccccc45)nnc3s2)c1
185 to 187 °C

// returns reported melting point for input O=[N+]([O-])c1ccc(-c2nn3c(-c4c[nH]c5ccccc45)nnc3s2)cc1
196 to 198 °C

// returns reported melting point for input FC(F)(F)c1ccc(-c2nn3c(-c4c[nH]c5ccccc45)nnc3s2)cc1
194 to 196 °C

// returns reported melting point for input COc1cc(OC)cc(-c2nn3c(-c4c[nH]c5ccccc45)nnc3s2)c1
193 to 195 °C

// returns reported melting point for input Brc1cccc(-c2nn3c(-c4c[nH]c5ccccc45)nnc3s2)c1
179 to 182 °C

// returns reported melting point for input Fc1cccc(-c2nn3c(-c4c[nH]c5ccccc45)nnc3s2)c1
183 to 185 °C

// returns reported melting point for input COc1ccc(-c2nn3c(-c4c[nH]c5ccccc45)nnc3s2)cc1
192 to 194 °C

// returns reported melting point for input Brc1ccc(-c2nn3c(-c4c[nH]c5ccccc45)nnc3s2)cc1
196 to 198 °C

// returns reported melting point for input Cc1ccc(-c2nn3c(-c4c[nH]c5ccccc45)nnc3s2)cc1
201 to 203 °C

// returns reported melting point for input Sc1nn2c(-c3c[nH]c4ccccc34)nnc2s1
170 to 172 °C

###

System: MDA-MB-231
METHOD DESCRIPTION: Cell viability by MTT assay, MDA-MB-231
Type: cell-based
EXPERIMENTAL CONTEXT: Homo sapiens, growth inhibition, 72 h, mean ± SEM
METRIC NAME: IC50 (µM)

MOLECULE | IC50 / µM
Cc1cc2c(C(C)C)c(O)c(O)c(C=O)c2c(O)c1-c1c(C)cc2c(C(C)C)c(O)c(O)c(C=O)c2c1O [Gossypol, gossypol, reference compound] | 5.5

(I) COc1cc(OC)cc(-c2nn3c(-c4c[nH]c5ccccc45)nnc3s2)c1
(II) Fc1cccc(-c2nn3c(-c4c[nH]c5ccccc45)nnc3s2)c1
(III) Brc1cccc(-c2nn3c(-c4c[nH]c5ccccc45)nnc3s2)c1
(IV) O=[N+]([O-])c1ccc(-c2nn3c(-c4c[nH]c5ccccc45)nnc3s2)cc1
Rank by IC50 (largest to smallest). # respond with the labels, arranged in the requested order
II, III, IV, I

(I) FC(F)(F)c1ccc(-c2nn3c(-c4c[nH]c5ccccc45)nnc3s2)cc1
(II) COc1ccc(-c2nn3c(-c4c[nH]c5ccccc45)nnc3s2)cc1
(III) Cc1ccc(-c2nn3c(-c4c[nH]c5ccccc45)nnc3s2)cc1
Rank by IC50 (largest to smallest). # respond with the labels, arranged in the requested order
III, I, II

(P) O=[N+]([O-])c1cccc(-c2nn3c(-c4c[nH]c5ccccc45)nnc3s2)c1
(Q) Sc1nn2c(-c3c[nH]c4ccccc34)nnc2s1
Among P and Q , whose measured IC50 is the smaller figure? Which one? Tell me its label.
P
(P: 3.6 µM, Q: 15 µM)
